Test system: 9L
protocol.text: Cellular uptake in rat 9L cells at 5 uCi measured […] by gamma counting in presence of system L transport inhibitor BCH
Type: ADME, cell-based
Reported Drug uptake values follow for various molecules
Just the number please, in %ID, no unit attached.

Illustrative cases are given below, each with its answer.
>  <smiles.notation>
C[C@@](N)(CF)C(=O)O.Cl

>  <system.tested>
9L

>  <Drug uptake, %ID>
1.21

$$$$
>  <smiles.notation>
C[C@](N)(CF)C(=O)O.Cl

>  <system.tested>
9L

>  <Drug uptake, %ID>
4.27

$$$$
>  <smiles.notation>
CN[C@](C)(CF)C(=O)O.Cl

>  <system.tested>
9L

>  <Drug uptake, %ID>
2.76

$$$$

[Q] I have this molecule here, "CN[C@@](C)(CF)C(=O)O.Cl" , and I need its recorded Drug uptake.
[A] 3.26

----------
Test system: Lung
protocol.text: Biodistribution in lung of Fischer 344 rat bearing rat 9L cells at 20 uCi, iv after 60 mins
Type: ADME, organism-based
experimental.parameters: in vivo, 1 h
readout.kind: Drug uptake (% ID/g)
Just the number please, in % ID/g, no unit attached.

Illustrative cases are given below, each with its answer.
>  <smiles.notation>
C[C@](N)(C[18F])C(=O)O.Cl

>  <Drug uptake (% ID/g)>
0.4

$$$$
>  <smiles.notation>
CN[C@@](C)(C[18F])C(=O)O.Cl

>  <Drug uptake (% ID/g)>
0.38

$$$$

[Q] I have this compound here, "C[C@@](N)(C[18F])C(=O)O.Cl" , and I need its recorded Drug uptake.
[A] 0.47

[Q] Please answer likewise for "CN[C@](C)(C[18F])C(=O)O.Cl"
[A] 0.5

----------
Tested on: Blood
protocol.text: Biodistribution in blood of Fischer 344 rat bearing rat 9L cells at 20 uCi, iv after 120 mins
Assay type: ADME, organism-based
experimental.parameters: in vivo, 2 h
Reported Drug uptake values follow for various molecules
Just the number please, in % ID/g, no unit attached.

>  <smiles.notation>
C[C@](N)(C[18F])C(=O)O.Cl

>  <system.tested>
Blood

>  <readout.kind>
Drug uptake

>  <reported.measurement>
0.16

$$$$

[Q] I have this molecule here, "C[C@@](N)(C[18F])C(=O)O.Cl" , and I need its recorded Drug uptake.
[A] 0.32

[Q] Please answer likewise for "CN[C@@](C)(C[18F])C(=O)O.Cl"
[A] 0.14

[Q] Please answer likewise for "CN[C@](C)(C[18F])C(=O)O.Cl"
[A] 0.14

----------
Tested on: Pancreas
protocol.text: Biodistribution in pancreas of Fischer 344 rat bearing rat 9L cells at 20 uCi, iv after 30 mins
Format: ADME, organism-based
experimental.parameters: in vivo, 0.5 h
readout.kind: Drug uptake (% ID/g)
Just the number please, in % ID/g, no unit attached.

Illustrative cases are given below, each with its answer.
>  <smiles.notation>
CN[C@](C)(C[18F])C(=O)O.Cl

>  <Drug uptake (% ID/g)>
3.4

$$$$
>  <smiles.notation>
CN[C@@](C)(C[18F])C(=O)O.Cl

>  <Drug uptake (% ID/g)>
2.72

$$$$
>  <smiles.notation>
C[C@@](N)(C[18F])C(=O)O.Cl

>  <Drug uptake (% ID/g)>
3.75

$$$$

[Q] I have this molecule here, "C[C@](N)(C[18F])C(=O)O.Cl" , and I need its recorded Drug uptake.
[A] 2.96

----------
System: Kidney
protocol.text: Biodistribution in kidney of Fischer 344 rat bearing rat 9L cells at 20 uCi, iv after 120 mins
Format: ADME, organism-based
experimental.parameters: in vivo, 2 h
Reported Drug uptake values follow for various compounds

[Q] I have this compound here, "C[C@@](N)(C[18F])C(=O)O.Cl" , and I need its recorded Drug uptake.
[A] 6.88 % ID/g

[Q] Please answer likewise for "C[C@](N)(C[18F])C(=O)O.Cl"
[A] 2.09 % ID/g

[Q] Please answer likewise for "CN[C@@](C)(C[18F])C(=O)O.Cl"
[A] 2.45 % ID/g

[Q] Please answer likewise for "CN[C@](C)(C[18F])C(=O)O.Cl"
[A] 2.22 % ID/g

----------
System: Lung
protocol.text: Biodistribution in lung of Fischer 344 rat bearing rat 9L cells at 20 uCi, iv after 30 mins
Format: ADME, organism-based
experimental.parameters: in vivo, 0.5 h
readout.kind: Drug uptake (% ID/g)
Just the number please, in % ID/g, no unit attached.

Illustrative cases are given below, each with its answer.
>  <smiles.notation>
CN[C@@](C)(C[18F])C(=O)O.Cl

>  <Drug uptake (% ID/g)>
0.36

$$$$
>  <smiles.notation>
C[C@](N)(C[18F])C(=O)O.Cl

>  <Drug uptake (% ID/g)>
0.37

$$$$
>  <smiles.notation>
CN[C@](C)(C[18F])C(=O)O.Cl

>  <Drug uptake (% ID/g)>
0.87

$$$$

[Q] I have this compound here, "C[C@@](N)(C[18F])C(=O)O.Cl" , and I need its recorded Drug uptake.
[A] 0.67

----------
Reported Drug uptake values follow for various molecules
System: Spleen
protocol.text: Biodistribution in spleen of Fischer 344 rat bearing rat 9L cells at 20 uCi, iv after 60 mins
Format: ADME, organism-based
experimental.parameters: in vivo, 1 h
Just the number please, in % ID/g, no unit attached.

>  <smiles.notation>
C[C@](N)(C[18F])C(=O)O.Cl

>  <readout.units>
% ID/g

>  <Drug uptake>
0.71

$$$$
>  <smiles.notation>
CN[C@@](C)(C[18F])C(=O)O.Cl

>  <readout.units>
% ID/g

>  <Drug uptake>
0.59

$$$$
>  <smiles.notation>
CN[C@](C)(C[18F])C(=O)O.Cl

>  <readout.units>
% ID/g

>  <Drug uptake>
0.53

$$$$

# next molecule below
[Q] I have this molecule here, "C[C@@](N)(C[18F])C(=O)O.Cl" , and I need its recorded Drug uptake.
[A] 0.62

----------
Reported Drug uptake values follow for various compounds
Tested on: Blood
protocol.text: Biodistribution in blood of Fischer 344 rat bearing rat 9L cells at 20 uCi, iv after 30 mins
Type: ADME, organism-based
experimental.parameters: in vivo, 0.5 h
Answer with the number, then the unit.

[Q] I have this compound here, "C[C@@](N)(C[18F])C(=O)O.Cl" , and I need its recorded Drug uptake.
[A] 0.58 % ID/g

[Q] Please answer likewise for "CN[C@](C)(C[18F])C(=O)O.Cl"
[A] 0.31 % ID/g

[Q] Please answer likewise for "C[C@](N)(C[18F])C(=O)O.Cl"
[A] 0.28 % ID/g

[Q] Please answer likewise for "CN[C@@](C)(C[18F])C(=O)O.Cl"
[A] 0.32 % ID/g

----------
Tested on: Muscle tissue
protocol.text: Biodistribution in muscle of Fischer 344 rat bearing rat 9L cells at 20 uCi, iv after 60 mins
Format: ADME, organism-based
experimental.parameters: in vivo, 1 h
Reported Drug uptake values follow for various molecules
Just the number please, in % ID/g, no unit attached.

Illustrative cases are given below, each with its answer.
>  <smiles.notation>
C[C@@](N)(C[18F])C(=O)O.Cl

>  <Drug uptake / % ID/g>
0.37

$$$$
>  <smiles.notation>
C[C@](N)(C[18F])C(=O)O.Cl

>  <Drug uptake / % ID/g>
0.52

$$$$
>  <smiles.notation>
CN[C@@](C)(C[18F])C(=O)O.Cl

>  <Drug uptake / % ID/g>
0.2

$$$$

# next molecule below
[Q] I have this molecule here, "CN[C@](C)(C[18F])C(=O)O.Cl" , and I need its recorded Drug uptake.
[A] 0.24

----------
System: Heart
protocol.text: Biodistribution in heart of Fischer 344 rat bearing rat 9L cells at 20 uCi, iv after 30 mins
Assay type: ADME, organism-based
experimental.parameters: in vivo, 0.5 h
Reported Drug uptake values follow for various compounds
Just the number please, in % ID/g, no unit attached.

Illustrative cases are given below, each with its answer.
>  <smiles.notation>
CN[C@](C)(C[18F])C(=O)O.Cl

>  <reported.measurement>
0.3

$$$$
>  <smiles.notation>
C[C@@](N)(C[18F])C(=O)O.Cl

>  <reported.measurement>
0.43

$$$$
>  <smiles.notation>
C[C@](N)(C[18F])C(=O)O.Cl

>  <reported.measurement>
0.32

$$$$

[Q] I have this compound here, "CN[C@@](C)(C[18F])C(=O)O.Cl" , and I need its recorded Drug uptake.
[A] 0.23

----------
Test system: Pancreas
protocol.text: Biodistribution in pancreas of Fischer 344 rat bearing rat 9L cells at 20 uCi, iv after 60 mins
Type: ADME, organism-based
experimental.parameters: in vivo, 1 h
readout.kind: Drug uptake (% ID/g)
Just the number please, in % ID/g, no unit attached.

Illustrative cases are given below, each with its answer.
>  <smiles.notation>
C[C@](N)(C[18F])C(=O)O.Cl

>  <readout.units>
% ID/g

>  <Drug uptake>
2.05

$$$$
>  <smiles.notation>
CN[C@](C)(C[18F])C(=O)O.Cl

>  <readout.units>
% ID/g

>  <Drug uptake>
4.34

$$$$
>  <smiles.notation>
C[C@@](N)(C[18F])C(=O)O.Cl

>  <readout.units>
% ID/g

>  <Drug uptake>
3.91

$$$$

[Q] I have this molecule here, "CN[C@@](C)(C[18F])C(=O)O.Cl" , and I need its recorded Drug uptake.
[A] 3.41
